- Tested on: mouse mast cells (MC/9)
- METHOD SUMMARY: antigen-induced release of hexosaminidase from MC/9 cells
- Format: cell-based
- CONDITION NOTES: Mus musculus, MC9, 25 μM compound, read-out: Percentage Inhibition (mean) MC/9 cells
The compounds listed here are annotated with their inhibition at 25 µM.
QUANTITY MEASURED: inhibition at 25 µM

1) C/C=C1/CCC2C3C(CC[C@]12C)[C@@]1(C)CCCCC1[C@@H](O)[C@@H]3O (stereo partly drawn)	61%
2) CC[C@H]1CCC2C3C(CC[C@@]21C)[C@@]1(C)CC[C@@H](O)CC1[C@H]1OC(C)(C)O[C@H]31 (stereo partly drawn)	13%
3) C=C1CCC2C3C(CC[C@]12C)[C@@]1(C)CC[C@H](O)CC1[C@@H](O)[C@@H]3O (stereo partly drawn)	39%
4) CC[C@H]1CCC2C3C(CC[C@@]21C)[C@@]1(C)CC[C@@H](O)CC1[C@@H](O)[C@@H]3O (stereo partly drawn)	67%
5) C/C=C1/CCC2C3C(CC[C@]12C)[C@@]1(C)CC[C@@H](O)CC1[C@@H](O)[C@@H]3O (stereo partly drawn) [Compound 330, 3α,6α,7β-trihydroxy-17(20)-pregnene]	49%
6) C/C=C1/CCC2C3C(CC[C@]12C)[C@@]1(C)CC[C@@H](Cl)CC1[C@@H](O)[C@@H]3O (stereo partly drawn)	56%

Entry source: patent US6949533B2
